Molecular target: human GLP-1 receptor (human, UniProt P43220 24-463)
Sequence (P43220 24-463): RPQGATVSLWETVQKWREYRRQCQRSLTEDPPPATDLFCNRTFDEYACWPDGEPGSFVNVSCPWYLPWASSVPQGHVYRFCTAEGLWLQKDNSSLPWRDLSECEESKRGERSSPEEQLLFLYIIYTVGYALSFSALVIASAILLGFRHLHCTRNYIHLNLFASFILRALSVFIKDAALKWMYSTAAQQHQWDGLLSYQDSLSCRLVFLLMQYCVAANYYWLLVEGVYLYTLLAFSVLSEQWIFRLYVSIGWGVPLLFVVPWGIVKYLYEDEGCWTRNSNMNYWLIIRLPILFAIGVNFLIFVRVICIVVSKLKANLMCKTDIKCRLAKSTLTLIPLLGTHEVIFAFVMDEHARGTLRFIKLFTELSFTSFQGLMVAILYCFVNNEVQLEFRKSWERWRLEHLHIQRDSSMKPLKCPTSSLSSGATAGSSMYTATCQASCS
Experiment: cell-based or functional assay
Starred links: 1 amine or outer side, 2 acyl side, 3 side chain; linkers in the order of their positions; H or OH if unused. Non-standard residues stand in square brackets, D forms with d. No end group written: not given here. ACPP = 2-amino-5-(3-chlorophenyl)pentanoic acid, O=C([C@H](CCCc1cccc(Cl)c1)N[*:1])[*:2]; 2CF3,4F‑APPA = 2-amino-5-(4-fluoro-2-(trifluoromethyl)phenyl)pentanoic acid; Bip(2'-Et-4'-OMe) = CCc1cc(OC)ccc1-c1ccc(C[C@H](N)C(=O)O)cc1; Leu(5,5,5,5',5',5'-F6) = N[C@@H](CC(C(F)(F)F)C(F)(F)F)C(=O)O; Nva(5-(3,5-Me2Ph)) = Cc1cc(C)cc(CCC[C@H](N)C(=O)O)c1; αMePhe(2-F) = C[C@](N)(Cc1ccccc1F)C(=O)O; Ac3c = NC1(C(=O)O)CC1; Aib = CC(C)(N)C(=O)O
QUANTITY_MEASURED: cAMP release, % activity, 1 nM (%)
The answer is to be given in %; state only the numeric part.

BINDER	REPORTED_RESULT
H[Ac3c]QGTFTSD[Bip(2'-Et-4'-OMe)][2CF3,4F‑APPA] [Seq. ID. No. 72: H-(ACP)-QGTFTSD-Bip(OMe)-(2CF3,4F-APPA)]	45
H[Aib][Leu(5,5,5,5',5',5'-F6)]GT[αMePhe(2-F)]TSD[Bip(2'-Et-4'-OMe)][Nva(5-(3,5-Me2Ph))] [Seq. ID. No. 235: H-Aib-(Hfl)-GT-(α-Me-2F-Phe)-TSD-Bip(OMe)-(ADMP)]	99

For the binder H[Aib]QGT[αMePhe(2-F)]TSD[Bip(2'-Et-4'-OMe)][ACPP] [Seq. ID. No. 39: H-Aib-QGT-(α-Me-2F-Phe)-TSD-Bip(OMe)-(ACPP)] , what cAMP release, % activity, 1 nM is on record? 40
